- study_system: human OX2R (Homo sapiens, UniProt O43614)
- Construct: expressed in transfected cells; host or cells: CHO (Chinese hamster ovary) cells, line CHOOX2R, co-expressing NFAT-luciferase
- Sequence (O43614 whole entry): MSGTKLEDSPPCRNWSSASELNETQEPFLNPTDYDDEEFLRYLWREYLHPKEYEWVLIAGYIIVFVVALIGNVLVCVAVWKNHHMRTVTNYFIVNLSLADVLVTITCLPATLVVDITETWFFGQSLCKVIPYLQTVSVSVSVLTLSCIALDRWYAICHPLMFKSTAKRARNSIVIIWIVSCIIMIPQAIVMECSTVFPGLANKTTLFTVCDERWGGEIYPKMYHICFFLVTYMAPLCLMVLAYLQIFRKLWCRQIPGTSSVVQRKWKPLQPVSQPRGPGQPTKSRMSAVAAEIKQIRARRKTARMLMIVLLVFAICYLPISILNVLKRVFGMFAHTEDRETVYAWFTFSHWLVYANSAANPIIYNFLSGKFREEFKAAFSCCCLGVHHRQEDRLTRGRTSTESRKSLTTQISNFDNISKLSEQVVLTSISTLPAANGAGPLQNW
- run_description: Agonist activity against OX2R: intracellular calcium (Fura-2AM, FDSS7000) in CHOOX2R cells
- Type: cell-based
- conditions: 1.0 μM test compound; relative to orexin-A as full agonist (100%)
metric_name: Response (%) OX2R

Example entries begin here.
[
  {
    "compound": "COc1ccc(-c2cccc(C(=O)N(C)C)c2)cc1S(=O)(=O)Nc1cccc(NC(=O)Nc2cccc(C(=O)N(C)C)c2)c1 [Example 49]",
    "metric_name": "Response (%) OX2R",
    "recorded_measurement": 89
  },
  {
    "compound": "COc1ccc(-c2cccc(C(=O)N(C)C)c2)cc1S(=O)(=O)Nc1cccc(NC(=O)Nc2ccccc2)c1 [Example 37]",
    "metric_name": "Response (%) OX2R",
    "recorded_measurement": 88
  },
  {
    "compound": "COc1ccc(Nc2cccc(NS(=O)(=O)c3cc(-c4cccc(C(=O)N(C)C)c4)ccc3OC)c2)cc1 [Example 29]",
    "metric_name": "Response (%) OX2R",
    "recorded_measurement": 84
  },
  {
    "compound": "COc1ccc(-c2cccc(C(=O)N(C)C)c2)cc1S(=O)(=O)Nc1cccc(Nc2ccc3c(c2)OCO3)c1 [Example 36]",
    "metric_name": "Response (%) OX2R",
    "recorded_measurement": 63
  }
]

1 = COc1ccc(NC(=O)Nc2cccc(NS(=O)(=O)c3cc(-c4cccc(C(=O)N(C)C)c4)ccc3OC)c2)cc1 [Example 53]
2 = COc1ccc(-c2cccc(C(=O)N(C)C)c2)cc1S(=O)(=O)Nc1cccc(NC(=O)Nc2ccccn2)c1 [Example 68]
3 = COc1ccccc1CNc1cccc(NS(=O)(=O)c2cc(-c3cccc(C(=O)N(C)C)c3)ccc2OC)c1 [Example 21]
Query: Output the entries ranked by Response (%) OX2R from maximum down to minimum. Answer format: the labels, ordered as requested.
Reply: 1, 3, 2
(1: 95%, 3: 37%, 2: 10%)

a = COc1ccc(-c2cccc(C(=O)N(C)C)c2)cc1S(=O)(=O)Nc1cccc(NC(=O)C[S+]([O-])C(c2ccccc2)c2ccccc2)c1 (stereo not drawn) [Example 13]
b = COc1ccc(-c2cccc(C(=O)N(C)C)c2)cc1S(=O)(=O)Nc1cccc(NC(=O)Nc2ccc(N(C)C)cc2)c1 [Example 39]
Query: Record comparison, field Response (%) OX2R: mark the lower of a and b . Let me know the label of the one you choose.
Reply: b

a = COc1ccc(-c2cccc(C(=O)N(C)C)c2)cc1S(=O)(=O)Nc1cccc(NC(=O)Nc2ccccc2Br)c1 [Example 43]
b = COc1ccc(-c2cccc(C(=O)N(C)C)c2)cc1S(=O)(=O)Nc1cccc(NC(=O)Nc2ccncc2)c1 [Example 70]
Query: Larger number for Response (%) OX2R: a , or b ? Let me know the label of the one you choose.
Reply: a

1 = COc1ccc(-c2cccc(C(=O)N(C)C)c2)cc1S(=O)(=O)Nc1cccc(NC(=N)Nc2cccc(C)c2)c1 [Example 78]
2 = COc1ccccc1Nc1cccc(NS(=O)(=O)c2cc(-c3cccc(C(=O)N(C)C)c3)ccc2OC)c1 [Example 31]
3 = COc1ccc(-c2cccc(C(=O)N(C)C)c2)cc1S(=O)(=O)Nc1cccc(NC(=O)c2ccccc2Br)c1 [Example 2]
4 = COc1ccc(-c2cccc(C(=O)N(C)C)c2)cc1S(=O)(=O)Nc1cccc(NC(=O)Nc2ccc(NC(=O)OC(C)(C)C)cc2)c1 [Example 72]
Query: I would appreciate it if you could sort these 4 compounds by Response (%) OX2R, starting from the smallest number. Answer format: the labels, ordered as requested.
Reply: 2, 3, 4, 1
(2: 10%, 3: 26%, 4: 59%, 1: 89%)

====

- study_system: human OX1R (Homo sapiens)
- Construct: expressed in transfected cells; host or cells: CHO (Chinese hamster ovary) cells, line CHOOX1R, co-expressing NFAT-luciferase
- run_description: Agonist activity against OX1R: intracellular calcium (Fura-2AM, FDSS7000) in CHOOX1R cells
- Type: cell-based
- conditions: test compound 1.0 μM; relative to orexin-A as full agonist (100%); read-out: Response (%) OX1R
Measured Emax at 1 µM of individual entries

Example entries begin here.
[
  {
    "compound": "CCOc1ccc(-c2cccc(C(=O)N(C)C)c2)cc1S(=O)(=O)Nc1cccc(NC(=O)Nc2cccc(N(C)C)c2)c1 [Example 119]",
    "Emax at 1 µM": "< 5%"
  },
  {
    "compound": "C=CC(=O)NCCN(C(=O)C=C)c1cccc(NS(=O)(=O)c2cc(-c3cccc(C(=O)N(C)C)c3)ccc2OC)c1 [Example 94]",
    "Emax at 1 µM": "< 5%"
  },
  {
    "compound": "COc1cccc(S(=O)(=O)Nc2cccc(NS(=O)(=O)c3cc(-c4cccc(C(=O)N(C)C)c4)ccc3OC)c2)c1 [Example 85]",
    "Emax at 1 µM": "< 5%"
  },
  {
    "compound": "COc1ccc(-c2cccc(C(=O)N(C)C)c2)cc1S(=O)(=O)Nc1cccc(NCC(=O)NCc2cccc(C)c2)c1 [Example 92]",
    "Emax at 1 µM": "6%"
  }
]

Could you now look at the following compound, please?
Query: Look at this compound and give its reported Emax at 1 µM. COc1ccc(-c2cccc(C(=O)N(C)C)c2)cc1S(=O)(=O)Nc1cccc(N(CCNC(=O)OC(C)(C)C)Cc2ccccc2)c1 [Example 91]
Reply: < 5%

====

- study_system: human OX1R (Homo sapiens, UniProt O43613)
- Construct: expressed in transfected cells; host or cells: CHO (Chinese hamster ovary) cells, line CHOOX1R, co-expressing NFAT-luciferase
- Sequence (O43613 1-425): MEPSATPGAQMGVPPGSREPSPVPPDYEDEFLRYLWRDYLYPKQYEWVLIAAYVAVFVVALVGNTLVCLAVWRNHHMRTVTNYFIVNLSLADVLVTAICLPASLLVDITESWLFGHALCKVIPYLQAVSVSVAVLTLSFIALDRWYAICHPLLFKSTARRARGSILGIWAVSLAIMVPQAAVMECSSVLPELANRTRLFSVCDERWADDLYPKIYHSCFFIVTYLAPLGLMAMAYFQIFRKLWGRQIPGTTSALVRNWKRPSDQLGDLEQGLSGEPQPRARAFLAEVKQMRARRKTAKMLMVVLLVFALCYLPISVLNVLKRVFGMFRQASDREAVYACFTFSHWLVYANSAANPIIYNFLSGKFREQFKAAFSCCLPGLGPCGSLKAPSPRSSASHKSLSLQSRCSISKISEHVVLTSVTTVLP
- run_description: Agonist activity against OX1R: intracellular calcium (Fura-2AM, FDSS7000) in CHOOX1R cells
- Type: cell-based
- conditions: test compound 0.1 μM; relative to orexin-A as full agonist (100%)
metric_name: Response (%) OX1R

[
  {
    "smiles_record": "COc1ccc(C(=O)NCCNC(=O)OC(C)(C)C)cc1S(=O)(=O)Nc1cccc(NC(=O)Nc2cccc(N(C)C)c2)c1",
    "units": "%",
    "Response (%) OX1R": 8
  },
  {
    "smiles_record": "COc1ccc(-c2cccc(C(=O)N(C)C)c2)cc1S(=O)(=O)Nc1cccc(N)c1",
    "units": "%",
    "Response (%) OX1R": 8
  },
  {
    "smiles_record": "COc1ccc(-c2cccc(C(=O)N(C)C)c2)cc1S(=O)(=O)Nc1cccc(N2CCCN(c3cccc(N(C)C)c3)C2=O)c1",
    "units": "%",
    "Response (%) OX1R": 9
  }
]

====

- study_system: human OX1R (Homo sapiens)
- Construct: expressed in transfected cells; host or cells: CHO (Chinese hamster ovary) cells, line CHOOX1R, co-expressing NFAT-luciferase
- Sequence (O43613 1-425): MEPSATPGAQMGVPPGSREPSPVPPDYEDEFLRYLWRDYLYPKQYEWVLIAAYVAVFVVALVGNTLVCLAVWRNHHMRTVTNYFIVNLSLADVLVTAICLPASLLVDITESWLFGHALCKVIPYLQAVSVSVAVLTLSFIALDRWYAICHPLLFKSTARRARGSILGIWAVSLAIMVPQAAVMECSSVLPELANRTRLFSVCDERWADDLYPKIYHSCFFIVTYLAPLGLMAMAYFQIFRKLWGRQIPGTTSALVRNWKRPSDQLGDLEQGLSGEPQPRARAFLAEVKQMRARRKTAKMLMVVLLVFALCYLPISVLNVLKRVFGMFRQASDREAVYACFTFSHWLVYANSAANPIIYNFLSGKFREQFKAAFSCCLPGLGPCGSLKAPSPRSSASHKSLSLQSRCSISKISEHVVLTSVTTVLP
- run_description: Agonist activity against OX1R: intracellular calcium (Fura-2AM, FDSS7000) in CHOOX1R cells
- Format: cell-based
- conditions: 10 μM test compound; relative to orexin-A as full agonist (100%)
metric_name: Response (%) OX1R

[
  {
    "smiles_record": "COc1ccc(-c2cccc(C(=O)N(C)C)c2)cc1S(=O)(=O)Nc1cccc(NC(=O)Nc2cccc(NC(=O)OC(C)(C)C)c2)c1",
    "units": "%",
    "Response (%) OX1R": 13
  },
  {
    "smiles_record": "COc1cccc(CNc2cccc(NS(=O)(=O)c3cc(-c4cccc(C(=O)N(C)C)c4)ccc3OC)c2)c1",
    "units": "%",
    "Response (%) OX1R": 51
  },
  {
    "smiles_record": "COc1ccc(-c2cccc(C(=O)N(C)C)c2)cc1S(=O)(=O)Nc1cccc(NC(=O)Nc2ccc([N+](=O)[O-])cc2)c1",
    "units": "%",
    "Response (%) OX1R": 7
  }
]

1 = COc1cccc(Nc2cccc(NS(=O)(=O)c3cc(-c4cccc(C(=O)N(C)C)c4)ccc3OC)c2)c1
2 = COc1ccc(-c2cccc(C(=O)N(C)C)c2)cc1S(=O)(=O)Nc1cccc(NC(=O)Nc2ccncc2)c1
3 = COc1ccc(-c2cccc(C(=O)N(C)C)c2)cc1S(=O)(=O)Nc1cccc(NC(=O)Nc2ccc(N(C)C)cc2)c1
4 = COc1ccc(-c2cccc(C(=O)N(C)C)c2)cc1S(=O)(=O)Nc1cccc(NCc2ccc(C)cc2)c1
5 = COc1ccc(-c2cccc(C(=O)N(C)C)c2)cc1S(=O)(=O)Nc1cccc(NC(=O)Nc2cccs2)c1
Query: Output the entries ranked by Response (%) OX1R from maximum down to minimum. Answer format: the labels, ordered as requested.
Reply: 4, 3, 1, 5, 2
